# assay_details: gradient 5% acetonitrile 3 min, to 50% in 2 min, to 85% in 15 min, held 3 min, 100 µL/min
# condition_description: column: Zorbax Extend-C18 2.1 x 50 mm; eluents: water / acetonitrile, 0.1% formic acid
Assign RP-LC retention time to each entry below.
Kindly provide the numeric value in s only, without the unit symbol.

**Query** Reported RP-LC retention time for COC(=O)Cn1c(=O)oc2cc(S(=O)(=O)N3CCN(c4ccccn4)CC3)ccc21 : what is it?
**Result** 624

**Query** Reported RP-LC retention time for CCOC(=O)C1CCCN(S(=O)(=O)c2cc(-c3nc(C)c(C)s3)sc2C)C1 (stereo not given) : what is it?
**Result** 1170

**Query** Reported RP-LC retention time for O=c1cc[nH]c2c(Cl)cccc12 : what is it?
**Result** 676

**Query** Reported RP-LC retention time for Cc1ccc(C2CC(=O)c3cnc(Nc4nc(C)c5ccccc5n4)nc3C2)cc1 (stereo not given) : what is it?
**Result** 772

**Query** Reported RP-LC retention time for CCCCNC(=O)c1nc(Nc2cccc(C)c2)c2ccccc2n1 : what is it?
**Result** 858

====

# assay_details: gradient 5% acetonitrile 3 min, to 50% in 2 min, to 85% in 15 min, held 3 min, 100 µL/min
# condition_description: column: Zorbax Extend-C18 2.1 x 50 mm; eluents: water / acetonitrile, 0.1% formic acid
Assign RP-LC retention time to each entry below.
Kindly provide the numeric value in s only, without the unit symbol.

**Query** Reported RP-LC retention time for CC1=C(c2ccc(F)cc2)S(=O)(=O)N=C1N1CCCN(C(=O)c2ccoc2)CC1 : what is it?
**Result** 752

**Query** Reported RP-LC retention time for Cc1ccc2c(Nc3ccc(C)c(F)c3)c(-c3nc(C)no3)cnc2n1 : what is it?
**Result** 807

**Query** Reported RP-LC retention time for COc1ccccc1NC(=O)N1CCC(CNC(=O)c2ccc(Br)o2)CC1 : what is it?
**Result** 744

**Query** Reported RP-LC retention time for Cc1cc2cc(CNC(=O)C(C)Oc3ccccc3)ccc2[nH]1 (centres undefined) : what is it?
**Result** 792

**Query** Reported RP-LC retention time for CCOC(=O)CNC(=O)N1CCCC1c1ccc(C)cc1 (centres undefined) : what is it?
**Result** 801

**Query** Reported RP-LC retention time for O=C(c1cccs1)N1CCN(c2ccc(-c3noc(C4CC4)n3)cc2)CC1 : what is it?
**Result** 949

**Query** Reported RP-LC retention time for CSc1cccc2sc(NC(=O)C3CCN(S(C)(=O)=O)CC3)nc12 : what is it?
**Result** 779

**Query** Reported RP-LC retention time for CC(NC(=O)C1CCN(c2cnc3nccnc3c2)CC1)c1ccc(F)cc1 (centres undefined) : what is it?
**Result** 702

**Query** Reported RP-LC retention time for COc1ccc(-c2cc3n(n2)C(NC2CC2)CNC3=O)cc1 (centres undefined) : what is it?
**Result** 683

**Query** Reported RP-LC retention time for O=c1ccc(S(=O)(=O)N2CCCCC2)cn1Cc1ccccc1 : what is it?
**Result** 851

**Query** Reported RP-LC retention time for CCc1ccc(S(=O)(=O)c2cnc(N3CCC4(CC3)OCCO4)nc2N)cc1 : what is it?
**Result** 944

**Query** Reported RP-LC retention time for COc1ccc(-c2[nH]ncc2CN2CC(F)(F)C[C@H]2CN2CCOCC2)cc1OC : what is it?
**Result** 594

**Query** Reported RP-LC retention time for O=C(NCCCN1CCCC1=O)c1nc2ccccn2c1-c1ccc(F)cc1 : what is it?
**Result** 656

**Query** Reported RP-LC retention time for CC(C)c1noc(C2Cc3ccccc3N2C(=O)Nc2ccc3c(c2)OCCO3)n1 (centres undefined) : what is it?
**Result** 936

**Query** Reported RP-LC retention time for Cc1ccc(NC(=O)C2CCCN(c3ccc4cc(S(=O)(=O)N5CCCC5)ccc4n3)C2)cc1C (centres undefined) : what is it?
**Result** 870

**Query** Reported RP-LC retention time for c1ccc(CNc2nc(C3CC3)nc3c2CCC3)nc1 : what is it?
**Result** 540

**Query** Reported RP-LC retention time for CC(C)CCNC(=O)c1ccc(Cn2c(C(F)(F)F)nc3cccnc32)cc1 : what is it?
**Result** 905

**Query** Reported RP-LC retention time for COCCNC(=O)c1ccc(-n2nc(C)c3c2CCCC3=O)cc1 : what is it?
**Result** 633

**Query** Reported RP-LC retention time for COc1ccc(Br)cc1S(=O)(=O)NCCc1ccccc1 : what is it?
**Result** 962

**Query** Reported RP-LC retention time for O=C(Nc1cccc(Cl)c1)C1CCCN(C(=O)c2cc(-c3ccccn3)n[nH]2)C1 (centres undefined) : what is it?
**Result** 740

**Query** Reported RP-LC retention time for CCCCS(=O)(=O)N1CCC(F)(c2nc(-c3ccccc3)no2)CC1 : what is it?
**Result** 1080

**Query** Reported RP-LC retention time for Cc1ccc(N2CN(CC(=O)N3CCCc4ccccc43)S(=O)(=O)c3cccnc32)cc1 : what is it?
**Result** 1030

**Query** Reported RP-LC retention time for Cc1cc2[nH]c(C(=O)Nc3ccccc3F)c(CN3CCOCC3)c2s1 : what is it?
**Result** 686

**Query** Reported RP-LC retention time for CCN(CC)C(=O)Cn1nc(-c2nc(-c3ccc(F)cc3)no2)ccc1=O : what is it?
**Result** 861

**Query** Reported RP-LC retention time for O=C(COc1ccccc1)NCC1CC(=O)N(Cc2ccc(F)cc2)C1 (centres undefined) : what is it?
**Result** 692

**Query** Reported RP-LC retention time for CCN1CCn2cc(S(=O)(=O)NCc3cccc(C(F)(F)F)c3)cc2C1=O : what is it?
**Result** 781

**Query** Reported RP-LC retention time for CCOc1cccc(-c2noc(Cn3ncn4nc(-c5ccc(C)cc5C)cc4c3=O)n2)c1 : what is it?
**Result** 1330

**Query** Reported RP-LC retention time for CCC(C)NC(=O)CS(=O)Cc1cnn(-c2ccccc2)c1-n1cccc1 (centres undefined) : what is it?
**Result** 756

**Query** Reported RP-LC retention time for CC(C)(C)NC(=O)N1CCCCC1c1nncn1-c1ccccc1 (centres undefined) : what is it?
**Result** 712

**Query** Reported RP-LC retention time for CCOc1ccccc1C(=O)Nc1ccc2c(c1)Sc1ncccc1C(=O)N2C(C)C : what is it?
**Result** 871

**Query** Reported RP-LC retention time for Cn1nc(C(=O)Nc2cccc3nsnc23)ccc1=O : what is it?
**Result** 723

**Query** Reported RP-LC retention time for Cc1cc(C)cc(NC(=O)Cc2csc3nc(-c4ccccc4)cn23)c1 : what is it?
**Result** 880

**Query** Reported RP-LC retention time for COc1cccc(CNC(=O)C2(C)CCCN(C(=O)Nc3ccc(F)c(Cl)c3)C2)c1 (centres undefined) : what is it?
**Result** 959

**Query** Reported RP-LC retention time for Cc1noc(-c2cccc(OC3CN(C(=O)Nc4cccc(F)c4)C3)c2)n1 : what is it?
**Result** 923

**Query** Reported RP-LC retention time for CCCCN(C)C(=O)C1CCN(S(=O)(=O)c2ccc3c(c2)sc(=O)n3C)CC1 : what is it?
**Result** 822

**Query** Reported RP-LC retention time for Cc1sc(-c2cc(C(F)(F)F)[nH]n2)cc1S(=O)(=O)N1CCN(c2ccc(Cl)cc2)CC1 : what is it?
**Result** 1180

**Query** Reported RP-LC retention time for COc1ccc(CN2C=C(C(=O)OCc3noc(-c4ccc(C)cc4)n3)C(C)=NS2(=O)=O)cc1 : what is it?
**Result** 1170

**Query** Reported RP-LC retention time for S=C(NCc1ccc2c(c1)OCO2)N1CCN(c2ncnc3c2oc2ccccc23)CC1 : what is it?
**Result** 875

**Query** Reported RP-LC retention time for c1ccc(-c2nc3nc4c(c(N5CCN(C6CCCCC6)CC5)n3n2)CCCC4)cc1 : what is it?
**Result** 668

====

# assay_details: gradient 5% acetonitrile 3 min, to 50% in 2 min, to 85% in 15 min, held 3 min, 100 µL/min
# condition_description: column: Zorbax Extend-C18 2.1 x 50 mm; eluents: water / acetonitrile, 0.1% formic acid
Assign RP-LC retention time to each entry below.
Kindly provide the numeric value in s only, without the unit symbol.

**Query** Reported RP-LC retention time for O=C(CCc1c(-c2ccccc2)nc2ccccn12)NC1CC1 : what is it?
**Result** 561

**Query** Reported RP-LC retention time for CCC(C)NC(=O)c1ccc(Cn2nc(C)c(S(=O)(=O)N(C)C)c2C)cc1 (stereo not given) : what is it?
**Result** 754

**Query** Reported RP-LC retention time for O=C(CCC1CCCC1)NCCc1noc(C2CC2)n1 : what is it?
**Result** 807

**Query** Reported RP-LC retention time for O=c1c2cc(-c3ccc4c(c3)OCO4)nn2ccn1Cc1nc(-c2cccc(F)c2)no1 : what is it?
**Result** 1010

**Query** Reported RP-LC retention time for Fc1ccc(OCc2nnc3sc(COc4ccccc4)nn23)cc1 : what is it?
**Result** 938

**Query** Reported RP-LC retention time for Cc1c(C(=O)N2CCC(C)CC2)cnn1-c1ccc(-c2nc(C(C)(C)C)no2)cn1 : what is it?
**Result** 1250

**Query** Reported RP-LC retention time for O=C(NCc1csc(C2CCN(C(=O)c3ccccc3Cl)CC2)n1)C1CCC1 : what is it?
**Result** 725

**Query** Reported RP-LC retention time for Cc1ccc(NC(=O)NCC2CCOCC2)c(Cl)c1 : what is it?
**Result** 720

**Query** Reported RP-LC retention time for Cc1cccc(CNC(=O)c2ccc3c(c2)nc2n3CCN(C3CCCCC3)C2=O)c1 : what is it?
**Result** 824

**Query** Reported RP-LC retention time for O=C1NCCCCCN(C(=O)c2cnccn2)[C@H]2CCC[C@@H]12 : what is it?
**Result** 620

**Query** Reported RP-LC retention time for CCOC(=O)C1CCN(S(=O)(=O)c2cccc3nsnc23)CC1 : what is it?
**Result** 810

**Query** Reported RP-LC retention time for CCC(C)NC(=O)N1CC=C(c2cn(C(C)C)c3ncccc23)CC1 (stereo not given) : what is it?
**Result** 821

**Query** Reported RP-LC retention time for COc1ccc(OC)c(NC(=O)N(C)CCc2noc(-c3ccc(Cl)cc3)n2)c1 : what is it?
**Result** 972

**Query** Reported RP-LC retention time for CC(=O)c1ccc(NC(=O)Cn2c(=O)n(-c3ccc(F)cc3)c(=O)c3c2cc(C)n3C)cc1 : what is it?
**Result** 763

**Query** Reported RP-LC retention time for CCOCC(=O)N1CCCn2ccnc2C1C1CCCC1 (stereo not given) : what is it?
**Result** 587

**Query** Reported RP-LC retention time for COc1cccc(CNC(=O)Cn2ccnc2-c2ccnc(N3CCCC3)c2)c1 : what is it?
**Result** 577

**Query** Reported RP-LC retention time for Cc1ccc(CSc2nnc3c(S(=O)(=O)N4CCCCC4)cccn23)cc1 : what is it?
**Result** 928

**Query** Reported RP-LC retention time for COC(=O)c1cc(OCC(=O)Nc2ccccc2F)c2cc(F)ccc2n1 : what is it?
**Result** 857

**Query** Reported RP-LC retention time for CCN1CCN(c2ncc(N3CCC(C(=O)NCCN4CCCCC4C)CC3)cn2)CC1 (stereo not given) : what is it?
**Result** 537

**Query** Reported RP-LC retention time for O=C(Cn1c(=O)c2cccn2c2ccc(F)cc21)NCCCN1CCCCC1 : what is it?
**Result** 600
